Values from PubChem BioAssay (NCATS)

Test system: CP315
Experiment: qHTS profiling for inhibitors of Plasmodium falciparum proliferation (AID 504749); further: nearly all actives have a fitted effect of over 60% in size
Settings: P. falciparum in erythrocytes, SYBR Green DNA, 72 h; series mostly up to 12.8 µM
Protocol: NIH National Institute of Allergy and Infectious Diseases [NIAID] NIH Chemical Genomics Center [NCGC] […] Because mature erythrocytes lack DNA, only Plasmodium-derived DNA is detected. NCGC Assay Protocol Summary: The SYBR Green viability assay was adapted from a method described previously (Plouffe et al., 2008). […] The following morning, fluorescence intensity at 485(14) nm excitation and 535(25) nm emission wavelengths was measured on an EnVision (Perkin Elmer) plate reader. […]
Results filed as inconclusive are left out. The source made the active and inactive calls. The call rests on the fitted dose curve; in most records, active means well fitted inhibition curve with a large enough effect; inconclusive means small, poorly fitted or top-dose-only effect; inactive means flat fitted curve, though single readings scatter.
Log the outcome using a class from label 1 (active), label 0 (inactive)

{"compound": "C[C@H](N[C@@H](C)COc1ccccc1)[C@H](O)c1ccc(O)cc1", "category label": "label 0"}

q: # fetch the recorded call for COc1ccc(CC(N)C(=O)NC2C(CO)OC(n3cnc4c(N(C)C)ncnc43)C2O)cc1 (configuration not stated) here
a: label 1

q: # fetch the recorded call for COC1C=CO[C@@]2(C)Oc3c(C)c(O)c4c(O)c(c(C=NN5CCN(C)CC5)c(O)c4c3C2=O)NC(=O)/C(C)=C\C=CC(C)C(O)[C@@H](C)C(O)C(C)[C@H](OC(C)=O)C1C (some centres not stated) here
a: label 1

q: # fetch the recorded call for CN1CC(=O)N=C1N here
a: label 0

q: # fetch the recorded call for CCCCC[C@H](O)/C=C\[C@H]1[C@H](C/C=C\CCCC(=O)O)[C@@H](O)C[C@H]1O (tested in a mixture with another compound) here
a: label 0

====

System: SC27B
Experiment: qHTS profiling for inhibitors of Plasmodium falciparum proliferation (AID 504749); further: nearly all actives have a fitted effect of over 60% in size
Settings: P. falciparum in erythrocytes, SYBR Green DNA, 72 h; series mostly up to 12.8 µM
Results filed as inconclusive are left out. Activity calls are given as the source filed them. Calls come from the whole dose curve; as a rule, active = well fitted inhibition curve with a large enough effect; inconclusive = small, poorly fitted or top-dose-only effect; inactive = flat fitted curve, though single readings scatter.
Log the outcome using a class from active, inactive

Known results for compounds:
{"compound": "CCOC(=O)[C@H](CCc1ccccc1)N[C@@H](C)C(=O)N1[C@H](C(=O)O)C[C@H]2CCC[C@@H]21", "category label": "inactive"}
{"compound": "C[C@@H]1C[C@H]2[C@@H]3C[C@H](F)C4=CC(=O)C=C[C@@]4(C)[C@]3(F)[C@H](O)C[C@]2(C)[C@@]1(O)C(=O)CO", "category label": "inactive"}

q: # fetch the recorded call for NS(=O)(=O)c1cc2c(cc1Cl)N[C@@H](CC1CCCC1)NS2(=O)=O here
a: inactive

q: # fetch the recorded call for Nc1nc2ncc(CNc3ccc(C(=O)NC(CCC(=O)O)C(=O)O)cc3)nc2c(=O)[nH]1 (stereo not drawn) here
a: inactive

q: # fetch the recorded call for CC1(C)[C@@H](OC(=O)CCC(=O)O)CC[C@@]2(C)[C@H]1CC[C@@]1(C)[C@H]2C(=O)C=C2[C@H]3C[C@](C)(C(=O)O)CC[C@]3(C)CC[C@@]21C here
a: inactive

q: # fetch the recorded call for NS(=O)(=O)c1cc2c(cc1Cl)N[C@@H](C(Cl)Cl)NS2(=O)=O here
a: inactive

q: # fetch the recorded call for C[C@@H](C(=O)O)c1ccc(C(=O)c2ccccc2)s1 here
a: inactive

q: # fetch the recorded call for Cn1nnnc1SCC1=C(C(=O)O)N2C(=O)[C@@H](NC(=O)[C@@H](O)c3ccccc3)[C@@H]2SC1 here
a: inactive

q: # fetch the recorded call for Clc1ccc([C@H](Cn2ccnc2)OCc2c(Cl)cccc2Cl)c(Cl)c1 here
a: active

q: # fetch the recorded call for C[C@]1(c2ccccc2)OC(C(=O)O)=CC1=O here
a: inactive

====

Target: Rap guanine nucleotide exchange factor 3 (Homo sapiens)
Test: Counterscreen qHTS for antagonist of cAMP-regulated guanine nucleotide exchange factor 3 (EPAC1) (AID 1645888);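 further: fluorescence loss as bound BODIPY-GDP is released from Rap1B; % of control where 0% means no effect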
Details: Rap1B-BODIPY-GDP nucleotide exchange, fluorescence; series mostly up to 154 µM
Inconclusive results are not listed. The source made the active and inactive calls. The call rests on the fitted dose curve; in most records, active means well fitted inhibition curve with a large enough effect; inconclusive means small, poorly fitted or top-dose-only effect; inactive means no such curve, though single readings can be large or run the other way.
assay readout: activity change, negative = inhibition

Known results for compounds:
{"compound": "CC(C)(C)c1ccc(CC(=O)N2CCC2(C)C(=O)NS(=O)(=O)c2ccccc2)cc1 (stereo unspecified)", "reading": "-2% [at 30.8 µM] (inactive)"}
{"compound": "O=C(NCCC(=O)N(CCc1ccccc1)Cc1ccccc1)c1ccccc1Cl", "reading": "-6.01% [at 30.8 µM] (inactive)"}
{"compound": "O=C1O/C(=C/c2ccccc2)N=C1c1ccccc1", "reading": "inactive"}
{"compound": "CNC(=O)NC(=O)C(NC1CCCc2ccccc21)c1ccccc1 (stereo unspecified)", "reading": "inactive"}
{"compound": "C=CCc1ccccc1Oc1cc(OC)nc(N)n1", "reading": "-22.4% [at 30.8 µM] (inactive)"}
{"compound": "CC(C)(C)C(=O)NCc1ccc(C(=O)CN2C(=O)NC3(CCCC3)C2=O)s1", "reading": "inactive"}
{"compound": "CCc1ccccc1N(CC(=O)NCCc1ccccc1)C(=O)CCC(=O)Nc1ccccn1", "reading": "inactive"}
{"compound": "O=C(NC1CCN(Cc2ccccc2)CC1)c1cn(-c2ccccc2)nc1-c1cccnc1", "reading": "inactive"}
{"compound": "COc1cc2c(cc1OC)-c1cc(NCc3ccccn3)nc(=O)n1CC2", "reading": "inactive"}
{"compound": "COc1ncc(-c2c(-c3ccccc3OC)sc3ccccc23)cn1", "reading": "-4.66% [at 30.8 µM] (inactive)"}

The record that follows has no activity change, negative = inhibition shown yet.
q: Lab note: Rap guanine nucleotide exchange factor 3 (Homo sapiens) assay, enter activity change, negative = inhibition for Cc1nc(N(C)Cc2ccccc2)c2c(C)c(C)sc2n1 here
a: -24.2% [at 30.8 µM] (inactive)

====

Target: Rap guanine nucleotide exchange factor 4 (Homo sapiens) (UniProt Q8WZA2)
Sequence (Q8WZA2 whole entry, looked up): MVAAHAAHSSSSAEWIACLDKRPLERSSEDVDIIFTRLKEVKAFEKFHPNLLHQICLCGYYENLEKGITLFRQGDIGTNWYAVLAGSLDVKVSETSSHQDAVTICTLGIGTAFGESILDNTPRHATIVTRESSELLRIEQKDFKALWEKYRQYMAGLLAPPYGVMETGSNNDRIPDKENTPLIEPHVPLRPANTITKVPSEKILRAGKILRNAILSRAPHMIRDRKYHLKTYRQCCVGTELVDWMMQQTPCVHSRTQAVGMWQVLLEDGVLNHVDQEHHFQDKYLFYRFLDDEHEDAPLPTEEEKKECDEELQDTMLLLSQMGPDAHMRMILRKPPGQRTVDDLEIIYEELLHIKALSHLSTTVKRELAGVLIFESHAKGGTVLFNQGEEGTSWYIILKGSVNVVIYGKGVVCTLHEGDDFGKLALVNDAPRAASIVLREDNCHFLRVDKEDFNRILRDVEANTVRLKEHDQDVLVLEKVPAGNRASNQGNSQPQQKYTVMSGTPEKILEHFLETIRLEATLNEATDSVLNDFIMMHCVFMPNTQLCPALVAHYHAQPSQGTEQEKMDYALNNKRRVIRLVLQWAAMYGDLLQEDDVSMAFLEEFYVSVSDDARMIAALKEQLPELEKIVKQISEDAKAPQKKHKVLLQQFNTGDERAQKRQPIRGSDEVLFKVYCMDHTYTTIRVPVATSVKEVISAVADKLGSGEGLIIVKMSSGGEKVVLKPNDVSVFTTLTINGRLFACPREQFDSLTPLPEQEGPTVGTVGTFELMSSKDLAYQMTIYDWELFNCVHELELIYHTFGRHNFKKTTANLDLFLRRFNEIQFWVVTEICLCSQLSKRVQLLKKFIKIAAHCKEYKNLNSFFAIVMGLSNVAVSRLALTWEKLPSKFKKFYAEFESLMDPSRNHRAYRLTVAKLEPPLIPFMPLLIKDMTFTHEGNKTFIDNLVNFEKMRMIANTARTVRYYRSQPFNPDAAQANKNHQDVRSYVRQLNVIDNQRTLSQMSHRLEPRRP
Experiment: Confirmatory qHTS for antagonist of cAMP-regulated guanine nucleotide exchange factor 4 (EPAC2) (AID 1645885); further: nearly all actives have a fitted effect of over 25% in size
Conditions: EPAC2 Rap1B-BODIPY-GDP exchange fluorescence, biochemical; series mostly up to 12.7 µM
Results filed as inconclusive are left out. Calls of active or inactive are those of the source. Calls come from the whole dose curve; as a rule, active = well fitted inhibition curve with a large enough effect; inconclusive = small, poorly fitted or top-dose-only effect; inactive = no such curve, though single readings can be large or run the other way.
Log the outcome using a class from active, inactive

q: # fetch the recorded call for O=C(O)c1ccc(N/N=C/c2ccc3c(c2)OCO3)cc1 here
a: active

q: # fetch the recorded call for CCc1ccccc1NC(=O)c1oc(=O)c2ccccc2c1-c1ccccc1 here
a: inactive

q: # fetch the recorded call for O/C=c1\ccc2cccc3nc(C(F)(F)F)nc1c23 here
a: inactive

q: # fetch the recorded call for CCc1ccccc1Oc1nc(NC(C)C)nc2ccsc12 here
a: inactive

q: # fetch the recorded call for O=C(c1ccc([N+](=O)[O-])o1)N1CCN(c2nc3c(Cl)cccc3s2)CC1 here
a: inactive

q: # fetch the recorded call for CSCCC(NS(=O)(=O)c1ccc2c(c1)oc(=O)n2C)C(=O)NC1CCCc2ccccc21 (configuration not stated) here
a: inactive

q: # fetch the recorded call for CCCCCCNC(=O)c1cc(-c2ccco2)nc2ccccc12 here
a: inactive

q: # fetch the recorded call for COc1ccc(CNC(=O)c2cc(=O)c3cc(C)ccc3o2)cc1 here
a: inactive

q: # fetch the recorded call for CN(CCC#N)C(=O)COC(=O)c1c2c(nc3ccccc13)/C(=C/c1ccco1)CC2 here
a: inactive

q: # fetch the recorded call for CCC(C)NC(=O)CS(=O)Cc1nc(-c2ccccc2C)oc1C (configuration not stated) here
a: inactive

q: # fetch the recorded call for CCn1c(CNC(=O)COC)nc2ccccc21 here
a: inactive

q: # fetch the recorded call for N#CC1=C(N)SC(N)=C(C#N)C1c1cccc(Oc2ccccc2)c1 here
a: inactive

q: # fetch the recorded call for Oc1cccc(C(Nc2ccccn2)c2ccc3cccnc3c2O)c1Cl (configuration not stated) here
a: inactive

====

Experiment: qHTS Assay for Lipid Storage Modulators (AID 1519); further: on the % scale 0 is the no-effect control and ±100 the full control effect
Settings: Drosophila S3 cells, BODIPY lipid droplet/cell ratio, laser cytometry; at 57.5 µM (top of the series); cells loaded with oleic acid
Inconclusive results are not listed.
assay readout: activity change, negative = inhibition (%)
Please respond with the number in % and leave the unit unwritten.

q: Answer with the recorded activity change, negative = inhibition for the molecule listed here: CC(C)c1ccc2c(c1)CCC1C(C)(C(N)=O)CCCC21C (stereo unspecified)
a: -15.9

q: Answer with the recorded activity change, negative = inhibition for the molecule listed here: CCC(C)C(=O)OC1CC(O)C=C2C=CC(C)C(CCC(O)CC(O)CC(=O)O)C21 (stereo unspecified)
a: 5.21

q: Answer with the recorded activity change, negative = inhibition for the molecule listed here: CC1=C(C(=O)O)N2C(=O)C(NC(=O)C(N)c3ccccc3)C2SC1 (stereo unspecified)
a: 9.95

q: Answer with the recorded activity change, negative = inhibition for the molecule listed here: COc1c2ccoc2nc2c(OC)c(OCC(O)C(C)(C)O)ccc12 (stereo unspecified)
a: 9.6

q: Answer with the recorded activity change, negative = inhibition for the molecule listed here: COc1ccc2c(c1OC)OCC(c1ccc(OC)c(OC)c1OC)C2 (stereo unspecified)
a: 9.26

q: Answer with the recorded activity change, negative = inhibition for the molecule listed here: COc1ccc2c(c1)OC/C(=C\c1ccc(OC)c(O)c1)C2=O
a: -9.54
